- systemUnderTest: antibody C1
- testMethodNotes: peptide competition ELISA; free peptide competes with coated target peptide for C1
observationType: IC50 (nM)
Note: unit nM is implicit; provide only the numeric part.

Lookup result for YEVQGEVF [CRP-derived 8-mer PET sequence YEVQGEVF] ; measured IC50: 1000
